Target: Short transient receptor potential channel 4 (Mus musculus, UniProt Q9QUQ5)
Sequence (Q9QUQ5 whole entry): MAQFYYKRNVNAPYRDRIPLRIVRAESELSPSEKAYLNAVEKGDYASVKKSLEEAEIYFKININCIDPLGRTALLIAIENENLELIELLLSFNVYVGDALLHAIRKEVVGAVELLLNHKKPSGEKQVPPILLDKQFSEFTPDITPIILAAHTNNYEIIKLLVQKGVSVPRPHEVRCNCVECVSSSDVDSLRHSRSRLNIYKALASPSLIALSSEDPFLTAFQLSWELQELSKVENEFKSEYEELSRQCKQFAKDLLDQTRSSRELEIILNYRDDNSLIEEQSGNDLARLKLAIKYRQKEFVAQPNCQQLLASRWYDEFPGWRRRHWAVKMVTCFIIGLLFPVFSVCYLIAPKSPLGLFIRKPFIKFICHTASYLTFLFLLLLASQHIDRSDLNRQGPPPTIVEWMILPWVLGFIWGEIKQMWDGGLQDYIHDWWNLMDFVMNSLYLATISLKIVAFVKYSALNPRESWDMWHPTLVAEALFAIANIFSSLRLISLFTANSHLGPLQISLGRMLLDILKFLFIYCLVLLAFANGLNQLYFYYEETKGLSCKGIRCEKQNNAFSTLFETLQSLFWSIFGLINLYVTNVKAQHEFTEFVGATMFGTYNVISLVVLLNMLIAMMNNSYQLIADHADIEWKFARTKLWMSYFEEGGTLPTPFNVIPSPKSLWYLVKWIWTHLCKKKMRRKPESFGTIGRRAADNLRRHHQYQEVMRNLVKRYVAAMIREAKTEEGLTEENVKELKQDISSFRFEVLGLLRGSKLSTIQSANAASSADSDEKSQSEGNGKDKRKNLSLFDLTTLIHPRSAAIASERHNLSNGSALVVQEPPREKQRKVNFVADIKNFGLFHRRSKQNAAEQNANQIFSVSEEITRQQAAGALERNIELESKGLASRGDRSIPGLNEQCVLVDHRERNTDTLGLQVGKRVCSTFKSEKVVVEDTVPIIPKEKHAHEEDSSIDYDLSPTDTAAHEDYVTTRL
Assay: block of DAMGO-driven TRPC4 calcium entry – cell-based, HEK293 TRPC4/mu-opioid, Fluo-4 calcium, dose response (AID 434942);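 also: potency of inhibitors blocking the TRPC4 calcium response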
Type: functional
Activity calls are given as the source filed them.
Please go through the items and note down their EC50.

[Q] Specify reported EC50 for the compound shown: COCCNc1c2c(nc3ccccc13)CCC2
[A] 5.96 µM (active)

[Q] Specify reported EC50 for the compound shown: Fc1ccccc1CNCCC(Cc1ccccc1)c1ccc2c(c1)OCO2 (centres undefined)
[A] 13.3 µM (active)

[Q] Specify reported EC50 for the compound shown: CC1CCN(CCOCCOc2ccccc2-c2ccccc2)CC1
[A] 2.99 µM (active)

[Q] Specify reported EC50 for the compound shown: COc1ccc(C(CNC(=O)c2cccc3cccnc23)N(C)C)cc1 (centres undefined)
[A] 0.531 µM (active)

---

Molecular target: SUMO-activating enzyme (Homo sapiens, UniProt Q9UBT2)
Sequence (Q9UBE0 whole entry): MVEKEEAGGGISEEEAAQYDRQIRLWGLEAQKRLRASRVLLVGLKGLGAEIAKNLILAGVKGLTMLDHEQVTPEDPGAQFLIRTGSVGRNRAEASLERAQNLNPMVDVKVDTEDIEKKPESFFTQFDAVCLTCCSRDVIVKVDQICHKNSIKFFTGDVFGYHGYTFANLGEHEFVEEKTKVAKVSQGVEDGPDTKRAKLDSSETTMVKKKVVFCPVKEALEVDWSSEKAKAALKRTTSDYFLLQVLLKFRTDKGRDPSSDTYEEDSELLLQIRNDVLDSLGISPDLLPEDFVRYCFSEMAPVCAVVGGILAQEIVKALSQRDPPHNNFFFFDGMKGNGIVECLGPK
Sequence (Q9UBT2 whole entry): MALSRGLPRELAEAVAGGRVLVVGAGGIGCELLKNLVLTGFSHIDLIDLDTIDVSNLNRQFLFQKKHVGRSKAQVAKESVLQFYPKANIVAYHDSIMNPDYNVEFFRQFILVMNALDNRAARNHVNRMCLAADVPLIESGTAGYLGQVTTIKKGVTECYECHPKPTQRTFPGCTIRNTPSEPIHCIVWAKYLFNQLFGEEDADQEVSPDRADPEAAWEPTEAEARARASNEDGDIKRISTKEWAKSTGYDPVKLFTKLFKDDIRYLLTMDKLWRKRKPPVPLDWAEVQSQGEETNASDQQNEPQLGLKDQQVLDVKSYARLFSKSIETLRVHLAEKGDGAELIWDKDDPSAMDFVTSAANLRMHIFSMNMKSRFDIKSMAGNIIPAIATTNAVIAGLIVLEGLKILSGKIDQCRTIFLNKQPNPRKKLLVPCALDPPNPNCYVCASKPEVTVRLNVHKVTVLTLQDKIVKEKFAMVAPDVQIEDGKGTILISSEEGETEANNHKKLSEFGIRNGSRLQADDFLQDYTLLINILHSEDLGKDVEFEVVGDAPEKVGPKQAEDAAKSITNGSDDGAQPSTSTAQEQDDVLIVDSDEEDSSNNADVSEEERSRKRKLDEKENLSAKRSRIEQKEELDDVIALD
Experiment: blockers of SAE1/SAE2–UBC9 SUMO transfer – biochemical, HTRF, uHTS, primary screen (AID 2006)
Type: protein-complex assay
The source made the active and inactive calls.
Please go through the items and note down their IC50.

[Q] Specify reported IC50 for the molecule shown: Cc1ccc(C(=O)O)cc1-c1ccc(/C=C2\SC(=O)N(CC(=O)Nc3ccc4c(c3)OCO4)C2=O)o1
[A] 10.3 µM (active)

[Q] Specify reported IC50 for the molecule shown: Cc1ccccc1NC(=O)Cn1c(O)c(N=NC(=O)c2ccccc2O)c2ccccc21
[A] 9.83 µM (active)

[Q] Specify reported IC50 for the molecule shown: CCCCn1c(NC(=O)c2ccc(Br)o2)c(S(=O)(=O)c2ccccc2)c2nc3ccccc3nc21
[A] 10.6 µM (active)

[Q] Specify reported IC50 for the molecule shown: Cc1ccc(NC(=O)COc2ccc(/C=C3/NC(=O)NC3=O)cc2)cc1
[A] 17.1 µM (active)
